molecular target: Torsin-1A-interacting protein 2 (Homo sapiens) (UniProt Q8NFQ8); experiment: LULL1 binders on small-molecule microarray, primary screen, cell lysate, human LULL1 lysate, 635/667 nm fluorescence (AID 1092); conditions: hLULL1 lysate binding, 635 nm fluorescence, higher = more signal;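 note: probe is lysate of COS7 cells overexpressing human LULL1; score merges per-feature 667 nm fluorescence with signal-to-noise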
Sequence (Q8NFQ8 whole entry, looked up): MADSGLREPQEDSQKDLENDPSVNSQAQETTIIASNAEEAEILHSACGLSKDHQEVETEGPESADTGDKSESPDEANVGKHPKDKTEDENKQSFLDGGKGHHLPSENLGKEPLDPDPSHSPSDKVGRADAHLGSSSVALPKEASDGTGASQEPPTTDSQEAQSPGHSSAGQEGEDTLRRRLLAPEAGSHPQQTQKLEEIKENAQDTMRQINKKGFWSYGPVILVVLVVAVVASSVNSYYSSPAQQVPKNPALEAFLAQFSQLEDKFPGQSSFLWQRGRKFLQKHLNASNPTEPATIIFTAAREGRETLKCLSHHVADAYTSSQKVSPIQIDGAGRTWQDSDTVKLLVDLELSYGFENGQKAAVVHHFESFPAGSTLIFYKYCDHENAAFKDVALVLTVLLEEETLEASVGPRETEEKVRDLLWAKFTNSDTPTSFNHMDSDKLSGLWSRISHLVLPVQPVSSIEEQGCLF
VALUE_KIND: composite z-score
Number only, please.

Look up and report measured composite z-score for this entry: C#CCNC(=O)[C@H](Cc1ccccc1)NC(=O)[C@@H](N=[N+]=[N-])C(C)C
1.57

Look up and report measured composite z-score for this entry: COc1ccc([Si](C)(C)[C@@H]2[C@@H](CCO)O[C@]3(C(=O)N(Cc4cccc(N5C(=O)c6ccccc6Oc6ccccc65)c4)c4ccccc43)[C@H]2C)cc1
1.46

Look up and report measured composite z-score for this entry: CCOC(=O)[C@H]1C/C=C/C[C@H](C(=O)OCC)C(=O)O[C@H]2[C@@H](OC)O[C@H](CO)[C@@H](OC(=O)CCc3ccccc3)[C@@H]2OC1=O
0.0772

Look up and report measured composite z-score for this entry: CCCCC(=C=CC[C@@H](O)c1ccc(OCCO)cc1)C[C@@H](O)COCc1ccccc1
0.146

Look up and report measured composite z-score for this entry: [N-]=[N+]=NCc1ccccc1C[C@@]1(C(=O)NCCN2CCOCC2)N=C(c2ccc(OCCCO)cc2)O[C@@H]1c1ccccc1N=[N+]=[N-]
3.12

Look up and report measured composite z-score for this entry: C[C@@H]1ON(c2ccc(C(=O)OC(C)(C)C)cc2)[C@H](c2ccc(Br)cc2)[C@H]1C(=O)N1C(=O)OC[C@H]1Cc1ccccc1
2.22

Look up and report measured composite z-score for this entry: Cc1ccc(F)cc1S(=O)(=O)N[C@@H]1CCN(Cc2ccc(Oc3ccccc3)cc2)C1
-0.367
